Answer each item with its documented normalized growth.
# EXPERIMENT NOTES: chemical genetic growth profiling, strain panel (AID 1159580);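 note: tested at 20 µM; growth read once vehicle control cultures reached saturation at 30 °C; 1 = growth at the plate median or of vehicle wells; lower values mean less growth of the strain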
# STATED CONDITIONS: S. cerevisiae deletion strains, growth OD, locus YOR290C, strain snf2, stronger effect = lower value
Screen size: about 5,500 compounds; about 2,000 (36%) were called active. About 18% were inconclusive and are not listed. The list shows a part of the results.
Give bare numbers.

Example results:
COMPOUND	normalized growth
C#CCCCCCCCCCCCc1ccco1	0.975
O=c1c(-c2ccc(O)cc2)coc2cc(O)ccc12	0.902
COc1ccc(C(c2ccc(OC)cc2)C(Cl)(Cl)Cl)cc1	0.984
CC1(O)CC2C(CC1O)C2(C)C (stereo not given)	1.01

Kindly review the next compound as well.
Please report the measured normalized growth for O=C(O)c1cc2cc(F)ccc2[nH]1
0.946

====

# EXPERIMENT NOTES: chemical genetic growth profiling, strain panel (AID 1159580);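 note: tested at 20 µM; growth read once vehicle control cultures reached saturation at 30 °C; 1 = growth at the plate median or of vehicle wells; lower values mean less growth of the strain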
# STATED CONDITIONS: S. cerevisiae deletion strains, growth OD, locus YEL037C, strain rad23, stronger effect = lower value
Among all 5,500 compounds or so, about 2,000 (36%) were called active. About 18% were inconclusive and are not listed. The list shows a part of the results.
TEST READOUT: normalized growth

Example results:
COMPOUND	TEST READOUT	RECORDED MEASUREMENT
COc1ccc(C(=O)CC(=O)O)c2c1C=CC(C)(C)O2	normalized growth	0.999 (inactive)
O=C(/C=C/c1ccc(O)c(O)c1)OC(Cc1ccc(O)c(O)c1)C(=O)O (configuration not stated)	normalized growth	1.02 (inactive)
COc1ccc(-c2coc3cc(O)ccc3c2=O)c(OC)c1	normalized growth	1.01 (inactive)
C/C=C(\C)C(=O)O[C@H]1C[C@@H](OC(C)=O)[C@@]2(C(=O)OC)CO[C@@H]3C2[C@]12CO[C@](O)(C(=O)OC)[C@H]2[C@](C)(C12O[C@@]1(C)[C@H]1C[C@@H]2OC2OC=C[C@@]21O)[C@@H]3O (some centres not stated)	normalized growth	0.977 (inactive)

// for each compound below, give its normalized growth
1. C=C[C@@](C)(O)CCC1C(=C)C[C@H](OC(C)=O)C2C(C)(C)CCCC12C (some centres not stated)
2. CN1C2CCC1CC(OC(c1ccccc1)c1ccccc1N)C2 (configuration not stated)
3. COc1ccc(-c2coc3cc(O)ccc3c2=O)cc1
4. O=c1c(-c2ccc(O)cc2)coc2cc(O)ccc12
5. Cn1c(=O)c2c(ncn2CC(O)CO)n(C)c1=O (configuration not stated)
6. C=C1CCC2[C@](C)(CO)[C@H](O)CC[C@@]2(C)[C@@H]1C/C=C1/C(=O)OC[C@H]1O (some centres not stated)
7. CC[C@@H]1C=C/C=C/C[C@H](C)[C@@H](O)[C@](C)(O)C(=O)[C@H](C)[C@@H](O)[C@H](C)C(=O)[C@H](C)[C@@H](O)[C@H](C)/C=C/C(=O)O[C@H]2[C@@H](C)[C@@H](CC1)O[C@@]1(CC[C@@H](C)[C@@H](C[C@H](C)O)O1)[C@@H]2C
8. CCC[C@H](N[C@@H](C)C(=O)N1[C@H](C(=O)O)C[C@@H]2CCCC[C@@H]21)C(=O)OCC

1. 1.02 (inactive)
2. 1 (inactive)
3. 0.983 (inactive)
4. 0.985 (inactive)
5. 0.972 (inactive)
6. 0.999 (inactive)
7. 1.02 (inactive)
8. 1.02 (inactive)

Where these numbers come from: PubChem BioAssay AID1159580
